B1: glmS ribozyme (parent)
chain: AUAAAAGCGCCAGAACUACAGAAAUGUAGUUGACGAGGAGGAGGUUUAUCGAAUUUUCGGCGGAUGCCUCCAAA

- Variants of: B1
- assay-remarks: self-cleavage kobs at 40 uM GlcN6P; higher = faster cleavage; RNA array
- details: with glucosamine-6-phosphate
Variants at the floor of the assay were thinned out.
Listed variants paired with reported self-cleavage kobs at 40 uM GlcN6P

mutant | self-cleavage kobs at 40 uM GlcN6P
C10A C11U U69G | 4.43e-05 s⁻¹
G9U C11G | < 1e-05 s⁻¹
A6G G9C | < 1e-05 s⁻¹
A36G U57A | < 1e-05 s⁻¹
U47A U54C C71U | 0.000577 s⁻¹
U46C G62C | < 1e-05 s⁻¹
U55A C70G | 3.74e-05 s⁻¹
G40A G41C G43U | < 1e-05 s⁻¹
G40U G62C | < 1e-05 s⁻¹
C8U G41A | < 1e-05 s⁻¹
G32A C34U C50U C61A G66A | 4.94e-05 s⁻¹
C8G U46G | < 1e-05 s⁻¹
U54G C71A | 0.00016 s⁻¹
C8G U30G G60A | < 1e-05 s⁻¹
G41U U47A | 7.19e-05 s⁻¹
A14G U49G | 7.8e-05 s⁻¹
A15C A36C C71U | < 1e-05 s⁻¹
G51C U55A | < 1e-05 s⁻¹
U65C C70A | < 1e-05 s⁻¹
G29U G44C U46A | < 1e-05 s⁻¹
C34A A52U | < 1e-05 s⁻¹
C11G C34A | < 1e-05 s⁻¹
